# Assay target: FGFR3 (UniProt P22607)
# Sequence (P22607 whole entry, looked up): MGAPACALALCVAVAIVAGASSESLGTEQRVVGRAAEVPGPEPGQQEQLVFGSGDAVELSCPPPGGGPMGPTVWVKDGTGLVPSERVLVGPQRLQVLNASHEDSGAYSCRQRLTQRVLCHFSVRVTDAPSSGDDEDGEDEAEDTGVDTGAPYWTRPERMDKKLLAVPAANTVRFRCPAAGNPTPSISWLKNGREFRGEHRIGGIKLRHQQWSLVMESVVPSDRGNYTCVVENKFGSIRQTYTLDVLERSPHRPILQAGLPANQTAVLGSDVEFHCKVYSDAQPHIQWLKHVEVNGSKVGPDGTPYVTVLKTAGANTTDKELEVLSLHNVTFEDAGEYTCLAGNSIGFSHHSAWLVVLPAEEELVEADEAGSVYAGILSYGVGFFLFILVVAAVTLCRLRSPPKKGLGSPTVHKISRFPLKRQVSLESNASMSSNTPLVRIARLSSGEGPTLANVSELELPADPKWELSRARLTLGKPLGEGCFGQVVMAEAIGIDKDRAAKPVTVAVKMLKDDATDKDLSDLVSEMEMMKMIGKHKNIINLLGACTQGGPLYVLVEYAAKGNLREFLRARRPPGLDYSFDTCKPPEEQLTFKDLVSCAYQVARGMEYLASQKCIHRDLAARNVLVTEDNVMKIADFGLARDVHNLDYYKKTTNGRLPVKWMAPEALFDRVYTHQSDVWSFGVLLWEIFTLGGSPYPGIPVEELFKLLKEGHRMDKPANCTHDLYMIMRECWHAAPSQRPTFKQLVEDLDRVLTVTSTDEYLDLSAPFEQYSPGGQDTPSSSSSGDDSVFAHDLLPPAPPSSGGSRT
# Test name: phosphorylation enrichment, bacterial display (enrichment ratio); higher = better substrate or ligand; peptides without Tyr show the background;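 also: 11-residue human phosphosite peptides and single-mutation variants displayed on the E. coli surface, counted by deep sequencing, each peptide's frequency after selection divided by its frequency in the unselected input library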;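 also: frequency after pTyr selection over input frequency; kinase dosed for 20-30% of maximal phosphorylation in three min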
Classification field: Fulfilled = phosphorylation enrichment at or over 0.5; Not fulfilled = phosphorylation enrichment under 0.5.

- Residues: "EMFNPYYGLFE [NEDD4L_Y679]"
  Qualitative label: "Fulfilled"
- Residues: "PQGVRYIYTID [DCX_Y103]"
  Qualitative label: "Fulfilled"
- Residues: "GFEVVYMTEPI [HSP90AB1_Y512]"
  Qualitative label: "Fulfilled"
- Residues: "VEKGSYSALLA [ABCC2_Y845]"
  Qualitative label: "Not fulfilled"

Query :: # bool: phosphorylation enrichment of TSSAIYMNLAS [GATAD2B_Y317] >= 0.5
Result :: Fulfilled

Query :: # bool: phosphorylation enrichment of ALSDGYWVVSN [TPP1_Y459] >= 0.5
Result :: Fulfilled
